Reported Cmax values for a set of compounds
EXPERIMENT: Cmax in Sprague-Dawley rat at 5 mg/kg, ip
Format: ADME, organism-based
Parameters: dose 5 mg/kg, route intraperitoneal
STUDY_CONDITIONS: in vivo
Give just the numeric value; ng/mL need not be written.

SMILES_DATA	VALUE_UNIT	OBSERVED_RESULT
COc1ccc(CO[C@H]([C@H](OCc2ccc(OC)cc2)c2cnc(N(C)C)nc2)[C@@H](COC(c2ccccc2)(c2ccccc2)c2ccccc2)OS(C)(=O)=O)cc1	ng/mL	12900

### Prompt Requested field: Cmax. Item: COc1ccc(CO[C@@H]([C@H](COC(c2ccccc2)(c2ccccc2)c2ccccc2)N=[N+]=[N-])[C@H](OCc2ccc(OC)cc2)c2cnc(N(C)C)nc2)cc1
### Response 3070
